Numbers sourced from the supplement of paper PMC8728848.

List of glycan array binding signal (z-score) values.
# subject of test: Gal(b1-3)GlcNAc(b1-3)Gal(b1-4)[Fuc(a1-3)]GlcNAc
# run description: glycan array binding signal (z-score within array); higher = stronger binding
# study conditions: glycan notation: IUPAC condensed, linker removed
This is one part of a sample in which the strongest signals are shown more often than they occur.
The answer should be written as a number, with no unit following it.

binder	glycan array binding signal (z-score)
LecB PA7 (Pseudomonas aeruginosa) (protein) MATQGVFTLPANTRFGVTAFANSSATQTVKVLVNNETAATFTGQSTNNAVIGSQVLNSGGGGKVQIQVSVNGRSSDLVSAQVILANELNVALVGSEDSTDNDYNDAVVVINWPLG	1.8

Continue with the binder presented below.
Req: Looking for the measured glycan array binding signal (z-score) of Flo1 (Saccharomyces cerevisiae), P32768 (protein) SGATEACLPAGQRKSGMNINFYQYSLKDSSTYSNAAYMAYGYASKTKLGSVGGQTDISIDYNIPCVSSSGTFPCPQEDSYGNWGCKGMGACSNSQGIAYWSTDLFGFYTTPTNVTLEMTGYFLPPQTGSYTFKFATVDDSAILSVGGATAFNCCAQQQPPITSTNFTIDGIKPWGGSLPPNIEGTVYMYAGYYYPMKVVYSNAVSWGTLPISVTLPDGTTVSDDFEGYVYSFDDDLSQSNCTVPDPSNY , can you help?
Resp: -0.364
